B1: FBF1 (parent)
chain: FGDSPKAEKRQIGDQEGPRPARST

- Variants of: B1
- method_description: protein stability index of a GFP-peptide fusion (GPS, HEK-293T) (PSI 1-6); higher = more stable;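 further: lentivirally expressed fusions sorted by FACS into six bins by GFP to DsRed ratio, PSI derived from sequencing read proportions per bin multiplied by bin number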
- settings: c terminus: a fixed tail appended
metric: protein stability index

1. G13T :: 5.03
2. E8L :: 3.87
3. T24Q :: 5.62
4. D3M :: 4.57
5. R22A :: 5.15
6. E16L :: 4.66
7. A21N :: 5.34
8. R10Y :: 4.97
9. S23I :: 4.57
10. D14G :: 4.71
11. R19T :: 4.23
12. G13V :: 4.54
13. R19F :: 4.87
14. S4Y :: 4.31
15. S23D :: 5.31
16. G2C :: 4.19
17. F1E :: 5.52
18. R10C :: 5.02
19. E16Q :: 5.19
20. S23P :: 4.67
21. P20V :: 4.54
22. K9Y :: 4.74
23. P20T :: 5.08
24. K6Y :: 4.8
25. R19L :: 4.9
26. P18I :: 4.17
27. A7Q :: 5.1
28. A21Y :: 4.86
29. A21L :: 4.17
30. E16A :: 4.55
31. K9V :: 4.89
32. T24P :: 5.25
33. I12R :: 5.17
34. E16T :: 5.03
35. G2N :: 4.16
36. E16V :: 4.99
37. Q15W :: 4.25
38. G13I :: 4.44
39. A7E :: 5.89
40. E8P :: 4.97
41. E16C :: 4.79
42. P18H :: 4.77
43. D14W :: 4
44. D3A :: 4.79
45. P20F :: 4.57
46. Q15I :: 4.65

Value source: the supplement of paper PMC10567573
